- target.of.assay: Acetylcholinesterase (Homo sapiens) (UniProt P22303)
- Sequence (P22303 whole entry, looked up): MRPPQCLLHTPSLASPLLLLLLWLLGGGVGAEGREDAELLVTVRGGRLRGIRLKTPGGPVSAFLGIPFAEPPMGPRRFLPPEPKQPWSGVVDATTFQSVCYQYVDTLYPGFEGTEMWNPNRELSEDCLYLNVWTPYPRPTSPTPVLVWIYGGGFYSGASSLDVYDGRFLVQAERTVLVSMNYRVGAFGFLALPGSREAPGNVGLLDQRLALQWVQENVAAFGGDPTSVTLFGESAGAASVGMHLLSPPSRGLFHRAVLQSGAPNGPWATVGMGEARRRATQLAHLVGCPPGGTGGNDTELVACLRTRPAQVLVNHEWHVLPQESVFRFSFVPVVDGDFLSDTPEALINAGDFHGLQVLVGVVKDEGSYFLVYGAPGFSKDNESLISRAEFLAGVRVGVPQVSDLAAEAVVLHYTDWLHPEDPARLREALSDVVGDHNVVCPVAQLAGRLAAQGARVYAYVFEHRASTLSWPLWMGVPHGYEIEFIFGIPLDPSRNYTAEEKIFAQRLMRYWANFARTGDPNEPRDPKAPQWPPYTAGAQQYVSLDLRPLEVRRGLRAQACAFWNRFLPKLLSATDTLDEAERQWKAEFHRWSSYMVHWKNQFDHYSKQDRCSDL
- measurement.protocol: Acetylcholinesterase (AChE) small molecule antagonists: enzyme-based qHTS assay (AID 1347397); note: nearly all actives have a fitted effect of over 55% in size
- experimental.parameters: AChE enzyme activity inhibition; series mostly up to 115 µM
The source made the active and inactive calls. Calls come from the whole dose curve.
Give one outcome, nothing more. List: active, inactive

Worked examples, 5 molecules total:
>>> discrete_label("CCOP(=O)(O)C(N)=O")
"inactive"
>>> discrete_label("COCc1cnc(C2=NC(C)(C(C)C)C(=O)N2)c(C(=O)O)c1 (configuration not stated)")
"inactive"
>>> discrete_label("CON(C)C(=O)Nc1ccc(Cl)cc1")
"inactive"
>>> discrete_label("CCOP(=S)(S)OCC")
"inactive"
>>> discrete_label("C=CC(=O)OCC")
"inactive"

Request: Status in this test for O=[N+]([O-])O[C@H]1CO[C@H]2[C@@H]1OC[C@H]2O[N+](=O)[O-] ?
Result: inactive

Request: Status in this test for CCCN(CCC)C(=O)Cc1c(-c2ccc(Cl)cc2)nc2ccc(Cl)cn12 ?
Result: inactive

Request: Status in this test for O=C1CC[C@@]2(O)[C@H]3Cc4ccc(O)c5c4[C@@]2(CCN3CC2CC2)[C@H]1O5 ?
Result: inactive

Request: Status in this test for CCCCC1C(=O)NC(=O)N(C2CCCCC2)C1=O (configuration not stated) ?
Result: inactive

Request: Status in this test for Clc1ccccc1 ?
Result: inactive

Request: Status in this test for C[C@]12CC[C@H]3[C@@H](CCC4=CC(=O)CC[C@@H]43)[C@@H]1CC[C@@H]2OC(=O)CCc1ccccc1 ?
Result: inactive

Request: Status in this test for O=C1NC(=O)C(=O)C(=O)N1 ?
Result: inactive

Request: Status in this test for CCSCc1ccccc1OC(=O)NC ?
Result: active

Request: Status in this test for CC(O)CN1CCN(CC(=O)[O-])CCN(CC(=O)[O-])CCN(CC(=O)[O-])CC1.[Gd+3] (configuration not stated) ?
Result: inactive

Request: Status in this test for CC(C)(C)c1ccc(CCOc2ncnc3ccccc23)cc1 ?
Result: inactive

Request: Status in this test for COC1CC(=C(c2cccs2)c2cccs2)C[N+](C)(C)C1 (configuration not stated) ?
Result: inactive

Request: Status in this test for CCCN(CCOc1c(Cl)cc(Cl)cc1Cl)C(=O)n1ccnc1 ?
Result: inactive
